Collected IC50, Eotaxin-1 assay, n = 1 values appear next to each entry.
- TARGET DESC: IL-13 (human IL-13, preparation not specified) (human, UniProt P35225 35-146, limits assumed)
- Sequence (P35225 35-146 limits assumed): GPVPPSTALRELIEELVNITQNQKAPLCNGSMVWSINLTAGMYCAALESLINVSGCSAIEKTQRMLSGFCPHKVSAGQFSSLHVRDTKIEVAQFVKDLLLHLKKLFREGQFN
- EXPERIMENT NOTES: cell-based or functional assay
MEASURE NAME: IC50, Eotaxin-1 assay, n = 1 (nM)

[[record]]
binder = "antibody 643 (antibody, V domains shown, also called Ab 643; mAb 643) VH: EVQLVESGGGLVKPGGSLRLSCAASGFTFSNAWMSWVRQAPGKGLEWVGRIRSEIDGGTTNYAAPVKGRFTISRDDSKNTLYLQMNSLRTEDTAVYYCATDQVGAYYGDYYGMDVWGQGTLVTVSS VL: SYELTQPPSVSVSPGQTARITCSGDALPEKYAYWYQQKSGQAPVLVIYEDSKRPSGIPERFSGSSSGTMATLTISGAQVEDEADYYCHSTDSSGNHGVFGGGTKLTVL"
measure_name = "IC50, Eotaxin-1 assay, n = 1"
uom = "nM"
reported_measurement = 0.044

[[record]]
binder = "antibody 623 (antibody, V domains shown) VH: EVQLVESGGGLVKPGGSLRLSCAASGFTFSNAWMSWVRQAPGKGLEWVGRIRSEIDGGTTNYAAPVKGRFTISRDDSKNTLYLQMNSLKTEDTAVYYCATDQVGAYYGDYYGMDVWGQGTLVTVSS VL: SYELTQPPSVSVSPGQTARITCSGDALPEKYAYWYQQKSGQAPVLVIYEDSKRPSGIPERFSGSSSGTMATLTISGAQVEDEADYYCHSTDSSGNHGVFGGGTKLTVL"
measure_name = "IC50, Eotaxin-1 assay, n = 1"
uom = "nM"
reported_measurement = 0.031

[[record]]
binder = "antibody 693 (antibody, V domains shown, also called sc693) VH: QVQLQESGPGLVKPSETLSLTCSVSGGSISSYYWSWIRQPAGKGLEWIGRIYMTGRTNYNSSLKSRVTMSIDTSKNQLSLKLSFMTAADTAVYYCARESGSSYSYDYWGQGTLVTVSS VL: SYVLTQPPSVSVAPGQTARITCGGNNIGSKGVHWYQQKPGQAPVLVVYDDSDRPSGIPERFSGSNSGNTATLTISRVEAGDEADYYCQVWVSSSDHHVVFGGGTKLTVV"
measure_name = "IC50, Eotaxin-1 assay, n = 1"
uom = "nM"
reported_measurement = 0.038

